Every entry's value here was drawn from patent US7935722B2.

Can you tell me pKi for the items I'm about to list?
Molecular target: human AR (androgen receptor) (Homo sapiens, UniProt P10275)
Construct: expressed in transfected cells; host or cells: 293 cells (293-AR lysate)
Experiment: Steroid hormone nuclear receptor binding assay, AR binding
One number for each entry, as −log10 of the molar value.

>>> recorded_measurement("CC(C)C(=O)NC1CCc2c(c3cc(C#N)ccc3n2Cc2ccccc2N(C)C)C1 (stereo not shown) [Example 114]")
7.68
>>> recorded_measurement("N#Cc1ccc2c(c1)c1c(n2Cc2cccc(F)c2)CC[C@@H](NC(=O)C2CC2)C1 [Example 194]")
8.89

Quick batch: pKi for everything below.
1. CC(C)C(=O)NC1CCc2c(c3ccccc3n2Cc2cccc(F)c2)C1 (stereo not shown) [Example 3]
2. CC(C)C(=O)NC1CCc2c(c3cc(C#N)ccc3n2Cc2ccccc2O)C1 (stereo not shown) [Example 107]
3. CC(C)C(=O)NC1CCc2c(c3cc(F)ccc3n2Cc2ccccc2Cl)C1 (stereo not shown) [Example 5]
4. CON(C)C(=O)NC1CCc2c(c3cc(C#N)ccc3n2Cc2cccc(F)c2)C1 (stereo not shown) [Example 180]
5. CC(C)C(=O)NC1CCc2c(c3cc(C#N)ccc3n2Cc2cccs2)C1 (stereo not shown) [Example 158]
6. CC(C)C(=O)NC1CCc2c(c3cc(Br)ccc3n2Cc2ccccc2C#N)C1 (stereo not shown) [Example 33]
7. Cc1csc(-c2ccc3c(c2)c2c(n3Cc3cccc(F)c3)CC[C@@H](NC(=O)C(C)C)C2)n1 [Example 128]

Result:
8.00
8.51
7.61
8.34
8.51
7.89
7.37

Quick batch: pKi for everything below.
1. CC(C)C(=O)N[C@@H]1CCc2c(c3cc(-c4nnc(N)s4)ccc3n2Cc2cccc(F)c2)C1 [Example 126]
2. O=Cc1ccc2c(c1)c1c(n2Cc2ccccn2)CCC(NC(=O)C2CC2)C1 (stereo not shown) [Example 206]

Result:
1. 7.72
2. 7.00

Quick batch: pKi for everything below.
1. O=C(NC1CCc2c(c3cc(OC(F)(F)F)ccc3n2Cc2cccc(F)c2)C1)C1CC1 (stereo not shown) [Example 167]
2. COC(=O)Nc1ccc2c(c1)c1c(n2Cc2cccc(F)c2)CC[C@@H](NC(=O)C(C)C)C1 [Example 190]
3. COc1cccc(Cn2c3c(c4cc(Br)ccc42)CC(NC(=O)C(C)C)CC3)c1 (stereo not shown) [Example 37]
4. CC(C)C(=O)NC1CCc2c(c3cc(C#N)ccc3n2Cc2ccccc2C(F)(F)F)C1 (stereo not shown) [Example 96]
5. CC(C)C(=O)NC1CCc2c(c3cc(C#N)ccc3n2Cc2ccc(F)cn2)C1 (stereo not shown) [Example 181]
6. CC(C)C(=O)N[C@@H]1CCc2c(c3cc(C#N)ccc3n2Cc2csc(Cl)n2)C1 [Example 154]
7. CC(C)C(=O)NC1CCc2c(c3cc(C#N)ccc3n2Cc2cc(F)cc(F)c2)C1 (stereo not shown) [Example 89]

Result:
1. 8.11
2. 8.17
3. 8.04
4. 7.83
5. 7.46
6. 8.66
7. 8.48

Quick batch: pKi for everything below.
1. COc1ccc(Cn2c3c(c4cc(Cl)ccc42)CC(NC(=O)C(C)C)CC3)cc1 (stereo not shown) [Example 27]
2. O=C(NC1CCc2c(c3cc(Br)ccc3n2Cc2cccc(F)c2)C1)C1CC1 (stereo not shown) [Example 170]

Result:
[7.34, 8.23]

----------
Molecular target: human AR (androgen receptor) (Homo sapiens, UniProt P10275)
Construct: expressed in transfected cells; host or cells: 293 cells (293-AR lysate)
Sequence (P10275 1-920): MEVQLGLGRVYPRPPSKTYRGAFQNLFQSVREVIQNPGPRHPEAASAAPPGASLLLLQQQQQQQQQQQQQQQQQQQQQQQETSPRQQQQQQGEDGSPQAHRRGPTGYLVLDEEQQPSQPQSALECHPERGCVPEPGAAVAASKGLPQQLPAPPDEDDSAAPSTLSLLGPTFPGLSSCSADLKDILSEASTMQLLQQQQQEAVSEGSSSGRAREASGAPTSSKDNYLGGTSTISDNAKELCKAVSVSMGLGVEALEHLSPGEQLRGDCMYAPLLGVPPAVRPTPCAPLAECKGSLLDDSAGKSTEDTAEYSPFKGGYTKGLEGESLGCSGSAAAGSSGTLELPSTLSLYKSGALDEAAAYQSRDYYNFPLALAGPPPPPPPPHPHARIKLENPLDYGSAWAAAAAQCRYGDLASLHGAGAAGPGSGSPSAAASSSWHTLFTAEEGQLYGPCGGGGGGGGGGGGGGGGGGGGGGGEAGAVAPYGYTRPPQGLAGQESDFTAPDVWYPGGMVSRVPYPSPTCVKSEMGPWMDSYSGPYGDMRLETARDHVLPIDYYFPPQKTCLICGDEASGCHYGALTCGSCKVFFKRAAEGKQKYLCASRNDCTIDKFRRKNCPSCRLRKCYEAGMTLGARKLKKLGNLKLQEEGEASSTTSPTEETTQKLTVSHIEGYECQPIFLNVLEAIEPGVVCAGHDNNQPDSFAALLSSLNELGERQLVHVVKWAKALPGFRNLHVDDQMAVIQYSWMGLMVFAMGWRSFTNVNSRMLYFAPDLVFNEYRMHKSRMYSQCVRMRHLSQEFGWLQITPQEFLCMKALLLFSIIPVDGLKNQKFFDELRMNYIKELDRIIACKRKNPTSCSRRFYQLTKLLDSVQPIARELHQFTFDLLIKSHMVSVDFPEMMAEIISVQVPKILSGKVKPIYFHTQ
Test: Steroid hormone nuclear receptor binding assay, AR binding
Conditions: average of n trials; read-out: AR binding Ki
So basically, if Ki comes in under 10 nM it's yes (1), and if it's 10 nM or more it's no (0).

Solved cases (3 shown):
>>> category("CC(C)C(=O)NC1CCc2c(c3cc(C(N)=S)ccc3n2Cc2cccc(F)c2)C1 (stereo not drawn) [Example 64]")
"no (0)"
>>> category("COC(=O)NC1CCc2c(c3cc(OC(F)(F)F)ccc3n2Cc2cccc(F)n2)C1 (stereo not drawn) [Example 164]")
"no (0)"
>>> category("CC(C)C(=O)N[C@@H]1CCc2c(c3cc(-c4nncs4)ccc3n2Cc2cccc(F)c2)C1 [Example 127]")
"no (0)"

Problem: Could you please tell me whether Ki recorded for CNC(=O)NC1CCc2c(c3cc(C#N)ccc3n2Cc2cccc(F)c2)C1 (stereo not drawn) [Example 179] is less than 10 nM?
Result: no (0)

Problem: Could you please tell me whether Ki recorded for COc1ccc2c(c1)c1c(n2Cc2ccccc2)CCC(NC(C)=O)C1 (stereo not drawn) [Example 65] is less than 10 nM?
Result: no (0)

----------
Can you tell me Emax for the items I'm about to list?
Target: human androgen receptor (AR) (Homo sapiens)
Construct: expressed in transfected cells; host or cells: mouse myoblast C2C12 cells, transiently co-transfected
Experiment: C2C12 AR/ARE reporter assay
Type: cell-based
Conditions: C2C12 AR/ARE reporter assay; average of n trials; read-out: C2C12 % Efficacy
Give bare numbers, in %.

>>> recorded_measurement("COC(=O)NC1CCc2c(c3cc(OC(F)(F)F)ccc3n2Cc2cccc(F)n2)C1 (stereo not shown)")
41.8
>>> recorded_measurement("CC(C)C(=O)N[C@@H]1CCc2c(c3cc(C(=O)O)ccc3n2Cc2cccc(F)c2)C1")
82.4
>>> recorded_measurement("CCOC(=O)Nc1ccc2c(c1)c1c(n2Cc2cccc(F)c2)CC[C@@H](NC(=O)C(C)C)C1")
52.9

We now examine a further molecule.
Problem: # query: Emax of entry CN(C)C(=O)NC1CCc2c(c3cc(OC(F)(F)F)ccc3n2Cc2cccc(F)c2)C1 (stereo not shown)
Result: 76.8

----------
Molecular target: human androgen receptor (AR) (Homo sapiens)
Construct: expressed in transfected cells; host or cells: mouse myoblast C2C12 cells, transiently co-transfected
Sequence (P10275 1-920): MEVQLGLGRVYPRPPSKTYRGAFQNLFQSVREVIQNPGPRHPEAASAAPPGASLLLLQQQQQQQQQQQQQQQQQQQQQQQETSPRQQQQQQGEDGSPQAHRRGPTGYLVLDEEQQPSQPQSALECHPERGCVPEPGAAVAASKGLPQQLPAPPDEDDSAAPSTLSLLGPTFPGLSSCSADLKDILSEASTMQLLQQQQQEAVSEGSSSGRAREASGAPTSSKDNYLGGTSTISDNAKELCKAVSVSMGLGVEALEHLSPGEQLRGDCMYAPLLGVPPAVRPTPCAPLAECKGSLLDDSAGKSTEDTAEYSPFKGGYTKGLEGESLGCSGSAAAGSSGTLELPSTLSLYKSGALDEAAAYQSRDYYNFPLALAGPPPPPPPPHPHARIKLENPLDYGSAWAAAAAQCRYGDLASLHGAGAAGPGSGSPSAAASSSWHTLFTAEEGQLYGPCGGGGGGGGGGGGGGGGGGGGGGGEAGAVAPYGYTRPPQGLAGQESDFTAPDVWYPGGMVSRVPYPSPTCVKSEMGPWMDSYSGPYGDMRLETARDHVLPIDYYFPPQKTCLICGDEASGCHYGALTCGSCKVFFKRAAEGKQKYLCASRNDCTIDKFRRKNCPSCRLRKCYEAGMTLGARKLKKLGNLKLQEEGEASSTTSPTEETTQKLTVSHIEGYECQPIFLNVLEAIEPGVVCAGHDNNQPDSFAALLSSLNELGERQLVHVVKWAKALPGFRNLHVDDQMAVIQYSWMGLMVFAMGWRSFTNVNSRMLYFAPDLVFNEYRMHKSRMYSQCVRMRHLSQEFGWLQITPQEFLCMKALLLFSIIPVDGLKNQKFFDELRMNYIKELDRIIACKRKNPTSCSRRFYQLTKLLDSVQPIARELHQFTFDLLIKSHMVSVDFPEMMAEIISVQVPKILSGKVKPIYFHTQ
Assay: C2C12 AR/ARE reporter assay
Assay type: cell-based
Can you tell me pEC50 for the items I'm about to list?
Give bare numbers, as −log10 of the molar value.

# example entries with known answers
>>> recorded_measurement("CO/N=C/c1ccc2c(c1)c1c(n2Cc2ccccn2)CC[C@@H](NC(=O)C2CC2)C1 [Example 208]")
8.42
>>> recorded_measurement("CC(C)C(=O)N[C@@H]1CCc2c(c3cc(C#N)ccc3n2Cc2ccccn2)C1 [Example 161]")
8.51
>>> recorded_measurement("Cc1nc(Cn2c3c(c4cc(C#N)ccc42)C[C@H](NC(=O)C(C)C)CC3)cs1 [Example 151]")
7.52

Quick batch: pEC50 for everything below.
1. CC(C)C(=O)NC1CCc2c(c3cc(F)ccc3n2Cc2ccc(Cl)cc2)C1 (stereo not shown) [Example 13]
2. COc1cccc(Cn2c3c(c4cc(Br)ccc42)CC(NC(=O)C(C)C)CC3)c1 (stereo not shown) [Example 37]
3. CC(C)C(=O)NC1CCc2c(c3cc(C#N)ccc3n2Cc2ccccc2C(F)(F)F)C1 (stereo not shown) [Example 96]
4. COC(=O)Nc1ccc2c(c1)c1c(n2Cc2cccc(F)c2)CC[C@@H](NC(=O)C(C)C)C1 [Example 190]

Result:
1: 5.99; 2: 6.96; 3: 6.91; 4: 8.66
